- Tested on: Plasmodium falciparum
- protocolText: Confirmatory screen in NF54 nanoGlo assay, in single point, at 2uM, 72h
- Type: functional, Erythrocyte
- conditionNotes: timepoint 72 hour
Screen size: about 4,800 compounds; about 420 (8.8%) showed an effect of 50% or more. This excerpt belongs to a sample that is enriched for strong results.
measure: % Inhibition
Form entry: enter the amount, then its unit.

The compound listed as CCOC(=O)c1c[nH]c2c(-c3ccccc3)nsc2c1=O shows % Inhibition equal to -5%

The compound listed as Cc1csc(NC(=O)[C@]2(C)Oc3ccccc3NC2=O)n1 shows % Inhibition equal to 0%

The compound listed as Cc1cc(N)n(-c2nc(-c3ccccc3)cc(=O)[nH]2)n1 shows % Inhibition equal to 1%

The compound listed as O=C(c1cnc2ccc(F)cc2c1N1CCC(Cc2ccccc2)CC1)N1CCCC1 shows % Inhibition equal to 2%

The compound listed as CCN(CC)C(=O)c1cnc2snc(C)c2c1N1CCC(C(=O)Nc2c(C)cc(C)cc2C)CC1 shows % Inhibition equal to 57%

The compound listed as COc1ccc(-c2cc3n(n2)C[C@@](C)(C(=O)NCc2ccccc2)N(Cc2ccc4c(c2)OCO4)C3=O)cc1 shows % Inhibition equal to 63%

The compound listed as Cc1ccc(O)c(CNc2ccc3c(c2)OCC3(C)C)n1 shows % Inhibition equal to -7%

The compound listed as Cc1csc([C@@H](C#N)C(=O)c2ccncc2)n1 shows % Inhibition equal to -11%
